# STUDY_SYSTEM: Acid ceramidase (Homo sapiens)
# Sequence (Q13510 22-142 limits assumed, stated change not applied): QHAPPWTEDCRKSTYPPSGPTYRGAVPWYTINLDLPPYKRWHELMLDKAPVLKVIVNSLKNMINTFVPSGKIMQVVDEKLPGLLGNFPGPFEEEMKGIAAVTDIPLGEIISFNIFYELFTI
# Sequence (Q13510 143-395 limits assumed, stated change not applied): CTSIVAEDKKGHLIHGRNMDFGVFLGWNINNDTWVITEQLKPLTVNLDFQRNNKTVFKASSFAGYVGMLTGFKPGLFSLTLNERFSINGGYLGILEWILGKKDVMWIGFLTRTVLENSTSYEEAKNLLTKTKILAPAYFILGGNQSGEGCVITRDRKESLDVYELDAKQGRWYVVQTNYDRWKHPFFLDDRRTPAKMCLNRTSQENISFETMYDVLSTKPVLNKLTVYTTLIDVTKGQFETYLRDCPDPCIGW
# ASSAY: Inhibition of human C-terminal His-tagged acid ceramidase variant 1 expressed in HEK293 cells using fluorogenic substrate Rbm-14-12 preincubated for 30 mins followed by substrate addition measured after 1 hr by fluorogenic assay
# Assay type: cell-based
pIC50: −log10 of the molar value.
EXPERIMENTAL_READOUT: pIC50

Worked examples follow.
[[record]]
compound_structure_string = "Cc1nc2ccccc2n1C(=O)NCCCCc1ccccc1"
experimental_readout = "pIC50"
obs_value = 9.00

[[record]]
compound_structure_string = "COc1nc2ccccc2n1C(=O)NCCCCc1ccccc1"
experimental_readout = "pIC50"
obs_value = 7.86

[[record]]
compound_structure_string = "Cc1ccc(CNC(=O)n2cnc3ccccc32)cc1"
experimental_readout = "pIC50"
obs_value = 7.83


(I) O=C(NCCCCc1ccccc1)n1cnc2ccccc21
(II) Cc1ccccc1CNC(=O)n1cnc2ccccc21
(III) Cc1ccc(CNC(=O)n2c(N)nc3ccccc32)cc1
(IV) Nc1nc2ccccc2n1C(=O)NCCCCc1ccccc1
Q) Rank items: key pIC50, increasing. // rank by listing labels in the order requested
A) II, III, I, IV

====

# ASSAY: Half life in PBS buffer at pH 7.4 at 10 uM by UPLC/MS analysis
# Type: physicochemical
EXPERIMENTAL_READOUT: half-life at 10 µM (min)

[[record]]
compound_structure_string = "O=C(NCCCCc1ccccc1)n1ncc2ccccc21"
obs_value = 134

[[record]]
compound_structure_string = "CCCCCCNC(=O)n1cnc2ccccc21"
obs_value = 59

[[record]]
compound_structure_string = "CCCCCCNC(=O)n1nnc2ccccc21"
obs_value = 17


(1) CCCCCCNC(=O)n1nnc2ncccc21
(2) Cc1cccc(CNC(=O)n2cnc3ccccc32)c1
(3) Cc1ccccc1CNC(=O)n1c(N)nc2ccccc21
Q) Hello, I need these entries ordered by half-life at 10 µM, highest reading first. Thanks! // list labels; follow requested order
A) 2, 3, 1

====

# ASSAY: Half life in PBS buffer at pH 7.4 at 10 uM by UPLC/MS analysis
# Assay type: physicochemical
EXPERIMENTAL_READOUT: half-life at 10 µM (min)

Here are 4 compounds together with their reported answers.
[[record]]
compound_structure_string = "O=C(NCCCCc1ccccc1)n1cnc2ccccc21"
obs_value = 50

[[record]]
compound_structure_string = "O=C(NCCCCc1ccccc1)N1C(=O)c2ccccc2C1=O"
obs_value = 6

[[record]]
compound_structure_string = "Nc1nc2ccccc2n1C(=O)NCCCCc1ccccc1"
obs_value = 14

[[record]]
compound_structure_string = "Cc1ccccc1CNC(=O)n1cnc2ccccc21"
obs_value = 58


(a) CCCCCCNC(=O)N1C(=O)c2ccccc2C1=O
(b) Nc1nc2ccccc2n1C(=O)NCc1ccccc1
(c) CCCCCCNC(=O)n1ncc2ccccc21
Q) Kindly order the items shown according to half-life at 10 µM, from the highest value down. Would you mind listing the labels in the order asked for?
A) c, b, a

(1) Cc1nc2ccccc2n1C(=O)NCCCCc1ccccc1
(2) Cc1cccc(CNC(=O)n2c(N)nc3ccccc32)c1
(3) Cc1ccc(CNC(=O)n2c(N)nc3ccccc32)cc1
Q) Order these by half-life at 10 µM, descending, and give the full ranking. Record the ranking as a list of labels in the requested order.
A) 3, 2, 1
(3: 23 min, 2: 11 min, 1: 7 min)
